The measurements presented in this section are drawn from the kinase profiling compilation of Christmann-Franck et al. (2016).

- System: PIK3CA (human), P42336 [H1047Y]
- Sequence (P42336 whole entry H1047Y, looked up): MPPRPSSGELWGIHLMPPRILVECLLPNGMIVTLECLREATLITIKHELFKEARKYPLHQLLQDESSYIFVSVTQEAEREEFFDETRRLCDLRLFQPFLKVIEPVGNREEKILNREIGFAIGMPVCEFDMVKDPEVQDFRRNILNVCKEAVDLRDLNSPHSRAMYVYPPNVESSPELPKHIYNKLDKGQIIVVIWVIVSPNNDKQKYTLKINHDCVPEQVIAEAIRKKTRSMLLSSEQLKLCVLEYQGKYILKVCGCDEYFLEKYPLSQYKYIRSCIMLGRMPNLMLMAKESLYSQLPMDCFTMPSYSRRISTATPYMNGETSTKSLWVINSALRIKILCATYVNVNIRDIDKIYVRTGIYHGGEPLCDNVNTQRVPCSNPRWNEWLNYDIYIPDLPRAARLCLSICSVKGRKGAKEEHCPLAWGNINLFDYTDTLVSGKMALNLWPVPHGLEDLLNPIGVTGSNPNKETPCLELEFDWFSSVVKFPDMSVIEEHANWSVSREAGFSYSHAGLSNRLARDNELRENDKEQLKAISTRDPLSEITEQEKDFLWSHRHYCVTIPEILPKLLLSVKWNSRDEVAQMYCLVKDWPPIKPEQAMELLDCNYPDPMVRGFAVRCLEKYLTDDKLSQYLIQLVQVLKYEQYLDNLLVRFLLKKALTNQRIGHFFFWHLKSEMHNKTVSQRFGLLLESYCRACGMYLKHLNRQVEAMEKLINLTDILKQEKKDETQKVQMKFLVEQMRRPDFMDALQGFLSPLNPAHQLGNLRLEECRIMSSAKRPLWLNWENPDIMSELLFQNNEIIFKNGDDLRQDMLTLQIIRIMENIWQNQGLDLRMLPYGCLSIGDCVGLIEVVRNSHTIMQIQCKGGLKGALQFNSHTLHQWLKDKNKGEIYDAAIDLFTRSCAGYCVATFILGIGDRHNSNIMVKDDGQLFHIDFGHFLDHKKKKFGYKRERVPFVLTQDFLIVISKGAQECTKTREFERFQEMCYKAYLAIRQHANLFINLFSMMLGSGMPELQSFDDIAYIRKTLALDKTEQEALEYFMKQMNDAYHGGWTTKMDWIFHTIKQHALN
- Experimental protocol: KINOMEscan competition binding
- Measurement parameters: compound 10.0 µM
# maps each entry to its kinase still bound, per cent of control
Report the figure in % without appending any unit label.

Cn1c(=O)n(-c2ccc(C(C)(C)C#N)cc2)c2c3cc(-c4cnc5ccccc5c4)ccc3ncc21 ... 6.2

*Q* kinase still bound, per cent of control of C=CC(=O)Nc1cc(-n2c(=O)ccc3cnc4ccc(-c5cn[nH]c5)cc4c32)ccc1C on PIK3CA (human), P42336 [H1047Y]?
*A* 13

*Q* Now consider CCc1nc(-c2cccc(C)c2)c(-c2ccnc(NC(=O)c3ccccc3)c2)s1 and answer again.
*A* 50

*Q* Ok, now CS(=O)(=O)N1CCN(Cc2cc3nc(-c4cccc5[nH]ncc45)nc(N4CCOCC4)c3s2)CC1
*A* 14

*Q* O=C(Nc1cccc(Nc2ncc(Br)c(NCCc3cnc[nH]3)n2)c1)N1CCCC1 , same question.
*A* 62

###

- Tested system: UniProt:Q8IVH8
- Sequence (Q8IVH8 whole entry, looked up): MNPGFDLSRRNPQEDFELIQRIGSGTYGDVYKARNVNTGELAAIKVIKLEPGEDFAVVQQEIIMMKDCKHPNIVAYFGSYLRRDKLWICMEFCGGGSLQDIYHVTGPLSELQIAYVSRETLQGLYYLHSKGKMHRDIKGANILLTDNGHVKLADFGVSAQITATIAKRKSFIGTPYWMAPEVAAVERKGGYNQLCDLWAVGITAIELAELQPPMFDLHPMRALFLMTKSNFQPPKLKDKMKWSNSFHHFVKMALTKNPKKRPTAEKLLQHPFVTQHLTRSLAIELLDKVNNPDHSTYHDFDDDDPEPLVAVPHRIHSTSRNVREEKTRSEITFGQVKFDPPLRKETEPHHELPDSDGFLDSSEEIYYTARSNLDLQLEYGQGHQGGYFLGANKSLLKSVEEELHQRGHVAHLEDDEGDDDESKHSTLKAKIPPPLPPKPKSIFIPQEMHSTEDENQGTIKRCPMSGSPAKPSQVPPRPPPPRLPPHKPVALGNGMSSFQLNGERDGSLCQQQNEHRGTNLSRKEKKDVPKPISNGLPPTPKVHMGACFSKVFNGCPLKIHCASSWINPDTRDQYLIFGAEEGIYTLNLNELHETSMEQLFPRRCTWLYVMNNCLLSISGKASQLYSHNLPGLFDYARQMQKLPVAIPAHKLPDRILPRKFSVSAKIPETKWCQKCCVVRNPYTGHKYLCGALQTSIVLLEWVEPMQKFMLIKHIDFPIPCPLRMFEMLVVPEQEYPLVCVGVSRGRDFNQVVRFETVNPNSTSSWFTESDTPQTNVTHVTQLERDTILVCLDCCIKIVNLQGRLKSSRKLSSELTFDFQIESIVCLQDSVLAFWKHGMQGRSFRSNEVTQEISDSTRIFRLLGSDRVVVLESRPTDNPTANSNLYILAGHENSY
- Experimental protocol: KINOMEscan competition binding
- Measurement parameters: compound 10.0 µM
Parameter: kinase still bound, per cent of control
Number first, unit second: that is the form wanted.

CCN1CCN(Cc2ccc(Nc3ncc4c(n3)N(C)c3ccccc3C(=O)N4C)cc2C(F)(F)F)CC1 ... 11%
C[C@@H](Oc1cc(-n2cnc3ccc(CN4CCN(C)CC4)cc32)sc1C(N)=O)c1ccccc1C(F)(F)F ... 59%
Nc1ccc(-c2ccc3ncc4ccc(=O)n(-c5cccc(C(F)(F)F)c5)c4c3c2)cn1 ... 63%
Cc1ccc(C(=O)Nc2cccc(C(F)(F)F)c2)cc1Nc1cncc(C(N)=O)c1 ... 100%
Cn1c(=O)n(-c2ccc(C(C)(C)C#N)cc2)c2c3cc(-c4cnc5ccccc5c4)ccc3ncc21 ... 100%

*Q* Tell me the measured kinase still bound, per cent of control of CCOc1cc2ncc(C#N)c(Nc3ccc(OCc4ccccn4)c(Cl)c3)c2cc1NC(=O)/C=C/CN(C)C , please.
*A* 2.1%

*Q* Would you kindly repeat that for C=CC(=O)Nc1cc(NC(=O)c2ccc(C)c(NC(=O)c3ccno3)c2)cc(C(F)(F)F)c1 ?
*A* 87%

*Q* Please answer likewise for O=C1Nc2ccc(I)cc2/C1=C/c1cc(Br)c(O)c(Br)c1
*A* 100%

*Q* Now consider CCC(=O)N1CCN(c2ccc(-n3c(=O)ccc4cnc5ccc(-c6cnc7ccccc7c6)cc5c43)cc2C(F)(F)F)CC1 .
*A* 1.9%

###

- Tested system: RIPK2 (human)
- Experimental protocol: KINOMEscan competition binding
- Measurement parameters: compound 10.0 µM
# note: boundary value 70% maps to 0 (no); kinase still bound, per cent of control below it maps to 1 (yes)

OCCCNc1cc(-c2ccnc(Nc3cccc(Cl)c3)n2)ccn1 ... 0 (no)

*Q* Please let me know if Cc1ccc2nc(NCCN)c3ncc(C)n3c2c1 shows kinase still bound, per cent of control below 70%.
*A* 0 (no)

*Q* Cool, now C=CC(=O)Nc1cccc(Nc2nc(N[C@H]3CC[C@H](N(C)C)CC3)nc3c2ncn3C(C)C)c1
*A* 0 (no)

*Q* Field entry: C[C@@H](Oc1cc(-n2cnc3ccc(CN4CCN(C)CC4)cc32)sc1C(N)=O)c1ccccc1C(F)(F)F
*A* 0 (no)

*Q* Can you handle CCCS(=O)(=O)Nc1ccc(F)c(C(=O)c2c[nH]c3ncc(-c4ccc(Cl)cc4)cc23)c1F next?
*A* 1 (yes)

*Q* Note, next up: Cc1ccc(NC(=O)c2cccc(C(C)(C)C#N)c2)cc1Nc1ccc2ncn(C)c(=O)c2c1
*A* 1 (yes)
